The reported numbers originate from patent US20220195015A1.

# Assay system: SARS-CoV-2 spike protein receptor binding domain (RBD) (SARS-CoV-2, UniProt P0DTC2 319-539)
# Test: ELISA, RBD coated on plate, mAb titrated
Checkbox rule: EC50 lower than 2 ng/mL = class 1; EC50 not lower than 2 ng/mL = class 0.

1) C535 (antibody, V domains shown) VH: EVQLVESGGALVQPGRSLRLSCAASGFTFDDYAMHWVRQAPGKGLEWVSSISWNGVSIGYADSVRGRFTISRDNAKNSLYLQMNSLKIGDTAFYYCARGLDGSSSASPDSWGQGTLVTVSS VL: DIQMTQSPSSVSASVGDRVTITCRASQGIGSWLAWYQQKPGKAPKLLIYLASSLQSGVPSRFSGSGSGTYFTLTISGLQPEDFATYYCQQGNSFPLTFGGGTKVEIK
class 0
2) C542 (antibody, V domains shown) VH: EVQLVESGGGLVQPGGSLRLSCAASGLTVTSNYMSWVRQAPGRGLEWVSLIYPGGTTYYADSVKGRFTVSRDNSKNTLYLQMDSLRAEDTGVYYCARETLGRGGDCWGQGTLVTVSS VL: DIQMTQSPSSLSASVGDRVTITCQASQDISNFLNWYQQKPGKAPKLLIYDASNLETGVPSRFSGSRSGTDFTFTISSLQPDDIATYYCQQYDNLPRSFGQGTKLEIK
class 1
3) C537 (antibody, V domains shown) VH: QLQLQESGPGLVKPSETLSLTCTVSGGAISSRNYHWGWIRQPPGKGLEWIGSIYYSGSTYYSPSLKSRVTISVDTSKNQFSLRLSSVTAADTAVYYCARLETSGWYTEDVFDIWGQGTMVTVSS VL: DIQMTQSPSSLSASVGDRVTITCRASQSISSYLNWYQQKPGKAPKLLIYAASSLQSGVPSRFSGSGSGTDFTLTISSLLPEDFATYYCQRSYSAMYTFGQGTKLEIK
class 0
4) C545 (antibody, V domains shown) VH: EVQLLESGGGLVKPGGSLRLSCAASGFTFSDYSMTWVRQAPGKGLEWVSFISSSSTYIYYADSVKGRFTISRDNAKSSLYLQMNRLRAEDTAVYYCTRVQVGARGWADYWGQGTLVTVSS VL: NFMLTQPLSVSESPGKTVTISCTRSSGSIASNYVQWYQQRPGGAPTTVIYEDTQRPSGVPDRFSGSIDSSSNSASLTISGLKTEDEADYYCQSCDTINWVFGGGTKLTVV
class 0
5) C552 (antibody, V domains shown) VH: QVQLVESGGGVVQPGRSLRLSCAASGFTFSSYAMHWVRQAPGKGLEWVALISYDGSNKHYADSVKGRFTISRDNSKNTLYLQMNSLRAEDTAVYYCARAGTTNSDYFDYWGQGTLVTVSS VL: SYELTQPPSVSVAPGKTARITCGGNNIGSKSVHWYQQKPGQAPVLVIYYDTDRPSGIPERFSGSNSGNTATLTISRVEAGDEADYYCQVWDSSSALWVFGGGTKLTVL
class 1
